tested_target: GBA2 (Homo sapiens)
Construct: measured using a membrane fraction obtained from Gaucher spleen; from tissue; host or cells: membrane fraction of Gaucher spleen, pre-treated with conduritol B-epoxide
Sequence (Q9HCG7 whole entry): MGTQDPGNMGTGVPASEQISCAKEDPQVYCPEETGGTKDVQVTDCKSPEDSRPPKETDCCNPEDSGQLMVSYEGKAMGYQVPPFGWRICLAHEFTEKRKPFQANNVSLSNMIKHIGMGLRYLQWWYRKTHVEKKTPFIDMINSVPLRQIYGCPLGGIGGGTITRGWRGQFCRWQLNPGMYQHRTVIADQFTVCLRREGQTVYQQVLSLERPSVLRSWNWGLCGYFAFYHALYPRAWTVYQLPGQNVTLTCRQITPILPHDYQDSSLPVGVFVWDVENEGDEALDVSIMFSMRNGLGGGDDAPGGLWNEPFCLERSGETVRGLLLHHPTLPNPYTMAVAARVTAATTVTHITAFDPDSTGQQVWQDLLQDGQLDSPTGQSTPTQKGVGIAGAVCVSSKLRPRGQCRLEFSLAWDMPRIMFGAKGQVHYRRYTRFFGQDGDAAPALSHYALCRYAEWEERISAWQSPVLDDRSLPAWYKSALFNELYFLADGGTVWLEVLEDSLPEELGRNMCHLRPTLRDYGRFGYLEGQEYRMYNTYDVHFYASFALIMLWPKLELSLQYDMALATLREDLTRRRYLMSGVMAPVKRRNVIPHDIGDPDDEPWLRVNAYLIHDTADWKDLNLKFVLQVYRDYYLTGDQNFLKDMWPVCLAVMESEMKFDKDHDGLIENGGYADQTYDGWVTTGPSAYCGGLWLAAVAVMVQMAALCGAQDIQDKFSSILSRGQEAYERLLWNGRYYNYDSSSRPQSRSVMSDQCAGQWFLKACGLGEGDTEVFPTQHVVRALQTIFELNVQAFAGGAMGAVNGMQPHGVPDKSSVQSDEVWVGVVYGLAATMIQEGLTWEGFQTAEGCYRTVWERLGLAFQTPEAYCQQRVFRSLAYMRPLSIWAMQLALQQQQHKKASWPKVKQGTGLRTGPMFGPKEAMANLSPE
procedure_summary: GBA2 activity, membrane fraction from Gaucher spleen, 4-MU-β-glucoside substrate;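 further: Read-out is fluorimetric quantification of released 4-MU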
Format: biochemical
condition_set: D-gluco configuration series, Example 3
measurement_kind: IC50 (nM)

Sample records with IC50:
[ask] Which IC50 value is on record for `OC[C@@H]1[C@@H](O)[C@H](O)[C@@H](O)CN1CCCCCOCc1ccc(-c2cccnc2)cc1` ?
[reply] 10

[ask] Which IC50 value is on record for `OC[C@@H]1[C@@H](O)[C@H](O)[C@@H](O)CN1CCCCCOCc1ccc(-c2ccncc2)cc1` ?
[reply] 10

1: OC[C@@H]1[C@@H](O)[C@H](O)[C@@H](O)CN1CCCCCOCc1ccc(-c2ccc(F)cc2)cc1
2: N#Cc1cccc(-c2ccc(COCCCCCN3C[C@H](O)[C@@H](O)[C@H](O)[C@H]3CO)cc2)c1
[ask] Higher IC50: 1 or 2 ? In your reply, give the label of the chosen option.
[reply] 2

P: COc1cccc(-c2ccc(COCCCCCN3C[C@H](O)[C@@H](O)[C@H](O)[C@H]3CO)cc2)c1
Q: OC[C@@H]1[C@@H](O)[C@H](O)[C@@H](O)CN1CCCCCOCc1ccc(-c2ccc(F)nc2)cc1
[ask] Higher IC50: P or Q ? In your reply, give the label of the chosen option.
[reply] P
